System: TK-10
Experiment: AUC of dose-response viability curve, drug alone (arbitrary (AUC of normalised viability)); higher = less growth inhibition
Details: treatment: drug alone; 5 days
# strict inequality: AUC of dose-response viability curve < 3 yields True, everything else yields False

C=CC(=O)Nc1cccc(Oc2nc(Nc3ccc(N4CCN(C)CC4)cc3)ncc2Cl)c1 ... True

Incoming: I wonder whether COc1cc2ncnc(Nc3ccc(F)c(Cl)c3)c2cc1OCCCN1CCOCC1 has AUC of dose-response viability curve below 3. Can you tell?
Outgoing: True

Incoming: Check COC1=CC(c2cc3ccccc3[nH]2)=N/C1=C\c1[nH]c(C)cc1C.CS(=O)(=O)O [Obatoclax mesylate (GX15-070)] too.
Outgoing: True

Incoming: Also O=C1NC(=O)/C(=C/c2ccc(-c3ccc(F)cc3O)o2)S1 , if possible.
Outgoing: False

Incoming: Query N#CC[C@H](C1CCCC1)n1cc(-c2ncnc3[nH]ccc23)cn1 next
Outgoing: False

Incoming: Also COc1cc2ncnc(Nc3cccc(Br)c3)c2cc1OC.Cl ?
Outgoing: True

Incoming: Same for COc1cc2c(Oc3ccc(NC(=O)C4(C(=O)Nc5ccc(F)cc5)CC4)cc3F)ccnc2cc1OCCCN1CCOCC1
Outgoing: True

* * *

Tested on: SN12C
Test: minimum viability across doses, drug + dasatinib, relative to DMSO (fraction); higher = less growth inhibition
Conditions: treatment: drug + dasatinib (fixed dose, not stated); 5 days
measureName: minimum viability across doses
Respond using a number only.

Incoming: Under SN12C: minimum viability across doses value of Cc1ccc(F)c(NC(=O)Nc2ccc(-c3cccc4[nH]nc(N)c34)cc2)c1 [Linifanib (ABT-869)] + Cc1nc(Nc2ncc(C(=O)Nc3c(C)cccc3Cl)s2)cc(N2CCN(CCO)CC2)n1 [dasatinib] ?
Outgoing: 0.312

Incoming: Request: CCC(=O)N1CCN(c2ccc(-n3c(=O)ccc4cnc5ccc(-c6cnc7ccccc7c6)cc5c43)cc2C(F)(F)F)CC1 [Torin 1] + Cc1nc(Nc2ncc(C(=O)Nc3c(C)cccc3Cl)s2)cc(N2CCN(CCO)CC2)n1 [dasatinib]
Outgoing: 0.0936

* * *

System: TK-10
Assay: minimum viability across doses, drug alone, relative to DMSO (fraction); higher = less growth inhibition
Settings: treatment: drug alone; 5 days
# Lookup of reported minimum viability across doses keyed by entry

Please review the following examples before continuing.
CC(=O)Nc1cccc(-n2c(=O)n(C3CC3)c(=O)c3c(Nc4ccc(I)cc4F)n(C)c(=O)c(C)c32)c1 ... 0.289
COc1cc2ncnc(Nc3ccc(F)c(Cl)c3)c2cc1OCCCN1CCOCC1 [Gefitinib (Iressa)] ... 0.269
CCOC(=O)C1=C(N)Oc2ccc(Br)cc2[C@H]1[C@H](C#N)C(=O)OCC [HA14-1] ... 0.948
CCOc1cc2ncc(C#N)c(Nc3ccc(F)c(Cl)c3)c2cc1NC(=O)/C=C/CN(C)C [Pelitinib (EKB-569)] ... 0.01
CN1C(=O)C(Cc2c[nH]c3ccccc23)NC1=S (configuration not stated) [Necrostatin-1] ... 0.729

Incoming: Reported minimum viability across doses for O=C1NC(=O)/C(=C/c2ccc3nccc(-c4ccncc4)c3c2)S1 : what is it?
Outgoing: 0.467

Incoming: Entry to check: Cc1cc(C(=O)NOCCO)c(Nc2ccc(I)cc2F)n(C)c1=O [AZD8330]
Outgoing: 0.317

Incoming: Next record, please: CC1(COc2ccc3c(c2)ncn3-c2ccc3cccc(N4CCC(N)CC4)c3n2)COC1
Outgoing: 0.16

Incoming: What would you report for CC(C)(C)Cn1c(N)nc2ccc(-c3[nH]c(C(C)(C)C)nc3-c3ccc(F)cc3)nc21.CS(=O)(=O)O.CS(=O)(=O)O ?
Outgoing: 0.564

Incoming: Also COc1cc2c(Oc3ccc4[nH]c(C)cc4c3F)ncnc2cc1OCCCN1CCCC1 [Cediranib (AZD2171)] ?
Outgoing: 0.0469
